# assay-target: hCB1 (Homo sapiens, UniProt P21554)
# Sequence (P21554 whole entry): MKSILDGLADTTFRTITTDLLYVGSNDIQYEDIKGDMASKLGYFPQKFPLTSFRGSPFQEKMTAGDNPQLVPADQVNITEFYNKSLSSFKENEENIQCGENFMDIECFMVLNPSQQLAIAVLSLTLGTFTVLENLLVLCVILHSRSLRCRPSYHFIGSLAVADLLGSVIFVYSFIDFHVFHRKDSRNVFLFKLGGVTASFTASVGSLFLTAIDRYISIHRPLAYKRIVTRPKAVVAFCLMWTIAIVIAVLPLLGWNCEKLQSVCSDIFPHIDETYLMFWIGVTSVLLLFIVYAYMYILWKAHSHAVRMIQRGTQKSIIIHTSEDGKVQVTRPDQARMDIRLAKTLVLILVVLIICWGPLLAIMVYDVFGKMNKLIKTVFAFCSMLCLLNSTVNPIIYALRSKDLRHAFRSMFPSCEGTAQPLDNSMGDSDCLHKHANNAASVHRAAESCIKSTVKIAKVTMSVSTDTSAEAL
# method-description: bioSensAll ebBRET signaling profiling, hCB1
# Assay type: cell-based
# Parameters: host or cells: HEK293SL cells, transient PEI transfection
# conditions-used: Gi1 biosensor; Log [Compound] (M) -10.5529
value-type: Gi1 hCB1 response

Q. Provide measured Gi1 hCB1 response value, entry: `Cc1cc(C(=O)N2CC3(CCC3)[C@H]2[C@H]2CCCO2)nn1-c1cccc(C(F)(F)F)c1`
A. 1.622

Q. Return Gi1 hCB1 response (reported value) for this compound: Cc1cc(C(=O)NC(c2ccccc2)c2ccco2)nn1-c1cccc(C(F)(F)F)c1 (centres unmarked)
A. 3.637

Q. Supply reported Gi1 hCB1 response belonging to this compound: COC(=O)C(NC(=O)c1cc(C)n(-c2cccc(F)c2)n1)c1cccs1 (centres unmarked)
A. -17.8943

Q. Dear colleague, please send me the reported Gi1 hCB1 response for `Cc1cc(C(=O)NC(c2ccco2)c2ccco2)nn1-c1cccc(C(F)(F)F)c1` when you can.
A. 0.2123

Q. Answer with the recorded Gi1 hCB1 response for the compound listed here: `COC(=O)[C@](C)(NC(=O)c1cc(C)n(-c2cccc(C(F)(F)F)c2)n1)c1cccs1`
A. -10.5308

* * *

Exercise: for every item that follows, state its recorded GoB hCB1.
# assay-target: hCB1 (Homo sapiens)
# method-description: bioSensAll ebBRET signaling profiling, hCB1
# Type: cell-based
# Set-up: host or cells: HEK293SL cells, transient PEI transfection
# conditions-used: Log [Compound] (M) -13; single replicate values, FigS6a
Response field accepts a number only; no unit should be typed.

Q. Please report GoB hCB1 with hCB1 (Homo sapiens) for item `Cn1nc(-c2nnc(C(C)(C)Oc3ccc(Cl)cc3)o2)c2ccccc2c1=O` .
A. -7.871

Q. Give GoB hCB1 for this entry on hCB1 (Homo sapiens): `Cn1nc(-c2nnc(C(C)(C)Oc3ccc(C(F)(F)F)cc3)o2)c2ccccc2c1=O`
A. -5.6139

Q. Look up and report measured GoB hCB1 (hCB1 (Homo sapiens)) for the following compound: `Brc1cc2c(cc1Cc1noc(-c3cnn(CC4CC4)c3)n1)OCO2`
A. -4.798

Q. Specify GoB hCB1 for Cc1c(C(=O)OCC2CSc3ccccc3O2)cnn1Cc1ccccc1 (stereo not drawn) , system hCB1 (Homo sapiens).
A. -5.215

Q. Enter GoB hCB1 (test system hCB1 (Homo sapiens)) for `Cc1nc(CC2CC2)oc1-c1nc(Cc2cc3c(cc2Br)OCO3)no1`
A. -5.215

Q. Answer with GoB hCB1 of Cc1nn(Cc2ccc(Cl)cc2)c(C)c1C(=O)OCC1CSc2ccccc2O1 (stereo not drawn) measured for hCB1 (Homo sapiens).
A. -4.468

* * *

# assay-target: hCB1 (Homo sapiens)
# method-description: bioSensAll ebBRET signaling profiling, hCB1
# Assay type: cell-based
# Parameters: host or cells: HEK293SL cells, transient PEI transfection
# conditions-used: Log [Compound] (M) -5.89285; single replicate values, FigS6a
We'd kindly ask you to apply these GoB hCB1 classes: Low = under 0.5, Medium = from 0.5 up to 40, High = 40 and over

Q. Bin? `Cc1cc(C(=O)N(C)C(c2ccco2)c2ccco2)nn1-c1cccc(C(F)(F)F)c1`
A. Low

Q. Class label required: Cc1c(C(=O)OCC2CSc3ccccc3O2)cnn1Cc1ccccc1 (stereo not drawn)
A. Medium

Q. Input `Cc1cc(C(=O)N2CC3(CCC3)[C@H]2[C@H]2CCCO2)nn1-c1cccc(C(F)(F)F)c1` ; output its category
A. Medium

Q. The entry to classify is CC(=O)C(c1cccs1)N(C)C(=O)c1cc(C)n(-c2cccc(C(F)(F)F)c2)n1 (stereo not drawn) ; which class holds it?
A. Medium

Q. Which class is correct for the following compound? `Brc1cc2c(cc1Cc1noc(-c3cnn(CC4CC4)c3)n1)OCO2`
A. Low

Q. Please indicate the class for Cc1cc(C(=O)NC(c2ccccc2)c2ccco2)nn1-c1cccc(C(F)(F)F)c1 (stereo not drawn) based on its GoB hCB1.
A. Medium

Q. Hello team, could you let me know which band the following compound falls into: Cc1cc(C(=O)NC(c2ccccc2)c2ccco2)nn1-c1cccc(C#N)c1 (stereo not drawn)
A. Medium

Q. Band assignment needed for `Cn1nc(-c2nnc(C(C)(C)Oc3ccc(C(F)(F)F)cc3)o2)c2ccccc2c1=O` please.
A. High

Q. # classify by GoB hCB1 band: Cc1cc(C(=O)N2CC3(CCC3)[C@@H]2[C@H]2CCCO2)nn1-c1cccc(C(F)(F)F)c1 (single isomer, unassigned)
A. Medium

Q. Class label required: `Cc1nc(CC2CC2)oc1-c1nc(Cc2cc3c(cc2Br)OCO3)no1`
A. Low

Q. Hello team, could you let me know which band the following compound falls into: COC(=O)C(NC(=O)c1cc(C)n(-c2cccc(F)c2)n1)c1cccs1 (stereo not drawn)
A. High

Q. Exam item: assign `COC(=O)[C@@H]1[C@@H]2CC[C@@H]2CN1C(=O)c1cc(C)n(-c2cccc(C(F)(F)F)c2)n1` to the correct category.
A. High

Q. Band for the recorded GoB hCB1 of `Cc1cc(C(=O)N2CC3(CCC3)[C@@H]2[C@@H]2CCCO2)nn1-c1cccc(C(F)(F)F)c1` ?
A. Low

Q. State the band of `Cc1cc(C(=O)NC(c2ccco2)c2ccco2)nn1-c1cccc(C(F)(F)F)c1`
A. High

Q. Class label required: Cc1nn(Cc2ccc(Cl)cc2)c(C)c1C(=O)OCC1CSc2ccccc2O1 (stereo not drawn)
A. Medium

Q. For this compound, which bin applies? Cc1cc(C(=O)N(C)C(c2ccccc2)c2ccco2)nn1-c1cccc(C(F)(F)F)c1 (stereo not drawn)
A. Low

Q. Bin this entry: COC(=O)[C@@H]1[C@@H]2CCC[C@@H]2CN1C(=O)c1cc(C)n(-c2cccc(Cl)c2)n1 (racemic)
A. Medium

* * *

# assay-target: hCB2 (Homo sapiens, UniProt P34972)
# Sequence (P34972 whole entry): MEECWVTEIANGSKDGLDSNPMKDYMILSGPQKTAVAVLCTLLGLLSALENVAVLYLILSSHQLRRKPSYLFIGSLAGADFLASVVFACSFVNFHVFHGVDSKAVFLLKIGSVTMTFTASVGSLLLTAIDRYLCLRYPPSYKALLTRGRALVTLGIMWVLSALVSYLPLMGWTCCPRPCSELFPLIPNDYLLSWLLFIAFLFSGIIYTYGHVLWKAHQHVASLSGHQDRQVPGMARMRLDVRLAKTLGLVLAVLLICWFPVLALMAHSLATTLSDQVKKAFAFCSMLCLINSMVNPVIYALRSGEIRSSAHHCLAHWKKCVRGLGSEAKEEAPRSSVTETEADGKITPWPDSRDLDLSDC
# method-description: bioSensAll ebBRET signaling profiling, hCB2
# Type: cell-based
# Set-up: host or cells: HEK293SL cells, transient PEI transfection
# conditions-used: read-out: EC50 [95% CI]; hCB2 Gi1
value-type: EC50
Note: a bare number is incomplete; add the unit.

Q. Print hCB2 (Homo sapiens, UniProt P34972) EC50 for COC(=O)C(C)(NC(=O)c1cc(C)n(-c2cccc(C(F)(F)F)c2)n1)c1cccs1 (stereo not shown) [‘4042] .
A. 2.7 nM

* * *

# assay-target: hCB1 (Homo sapiens)
# method-description: bioSensAll ebBRET signaling profiling, hCB1
# Assay type: cell-based
# Set-up: host or cells: HEK293SL cells, transient PEI transfection
# conditions-used: Gi1 biosensor; Log [Compound] (M) -9.61989
value-type: Gi1 hCB1 response
Format: numeric value only, no unit, no commentary.

Q. For `Cc1cc(C(=O)N2CC3(CCC3)[C@H]2[C@H]2CCCO2)nn1-c1cccc(C(F)(F)F)c1` , write its Gi1 hCB1 response.
A. 0.5704

Q. Respond only with Gi1 hCB1 response recorded for `COC(=O)[C@](C)(NC(=O)c1cc(C)n(-c2cccc(C(F)(F)F)c2)n1)c1cccs1`
A. 4.487

Q. # return recorded Gi1 hCB1 response for entry `COC(=O)[C@@H]1[C@@H]2CC[C@@H]2CN1C(=O)c1cc(C)n(-c2cccc(C(F)(F)F)c2)n1`
A. -4.421

Q. Write down Gi1 hCB1 response measured for item Cc1cc(C(=O)N2CC3(CCC3)[C@@H]2[C@H]2CCCO2)nn1-c1cccc(C(F)(F)F)c1 (single isomer, unassigned)
A. -2.876

* * *

# assay-target: UniProtKB P21554
# method-description: bioSensAll ebBRET signaling profiling, hCB1
# Format: cell-based
# Parameters: host or cells: HEK293SL cells, transient PEI transfection
# conditions-used: Log [Compound] (M) -8.39794; single replicate values, FigS6a
Decision: Gi1 hCB1 compared against 2; not below it gives t, below it gives f.

Q. Hello, I need to know if `COC(=O)[C@@H]1[C@@H]2CC[C@@H]2CN1C(=O)c1cc(C)n(-c2cccc(C(F)(F)F)c2)n1` has measured Gi1 hCB1 not below 2. Thanks!
A. f

Q. For this compound, is measured Gi1 hCB1 2 or higher? `Cc1cc(C(=O)N2CC3(CCC3)[C@@H]2[C@@H]2CCCO2)nn1-c1cccc(C(F)(F)F)c1`
A. f

Q. Is the recorded value of Gi1 hCB1 equal to or greater than 2 for this compound? `Cc1cc(C(=O)N2CC3(CCC3)[C@H]2[C@@H]2CCCO2)nn1-c1cccc(C(F)(F)F)c1`
A. t

Q. Textbook exercise: given the entry `Cc1cc(C(=O)N(C)C(c2ccco2)c2ccco2)nn1-c1cccc(C(F)(F)F)c1` , state whether its Gi1 hCB1 is greater than or equal to 2.
A. f

Q. Does Gi1 hCB1 meet or surpass 2 for Cc1cc(C(=O)N2CC3(CCC3)[C@@H]2[C@H]2CCCO2)nn1-c1cccc(C(F)(F)F)c1 (single isomer, unassigned) ?
A. f

Q. Is Gi1 hCB1 for `Cc1cc(C(=O)N2CC3(CCC3)[C@H]2[C@H]2CCCO2)nn1-c1cccc(C(F)(F)F)c1` at or above 2?
A. t

Q. Is Gi1 hCB1 at least 2? Consider COC(=O)[C@@H]1[C@@H]2CCC[C@@H]2CN1C(=O)c1cc(C)n(-c2cccc(Cl)c2)n1 (racemic)
A. t

Q. Quick check: does `Cn1nc(-c2nnc(C(C)(C)Oc3ccc(Cl)cc3)o2)c2ccccc2c1=O` have Gi1 hCB1 greater than or equal to 2?
A. f

Q. Please indicate if the recorded Gi1 hCB1 for Cc1nn(Cc2ccc(Cl)cc2)c(C)c1C(=O)OCC1CSc2ccccc2O1 (stereo not shown) meets or exceeds 2.
A. f

Q. For this compound, is measured Gi1 hCB1 2 or higher? `COC(=O)[C@@H]1[C@@H]2CCC[C@@H]2CN1C(=O)c1cc(C)n(-c2cccc(C(F)(F)F)c2)n1`
A. t

Q. Is it the case that `Cc1cc(C(=O)NC(c2ccco2)c2ccco2)nn1-c1cccc(C(F)(F)F)c1` has Gi1 hCB1 reaching or exceeding 2?
A. t

Q. Form field: Gi1 hCB1 at least 2? Entry: CC(=O)C(c1cccs1)N(C)C(=O)c1cc(C)n(-c2cccc(C(F)(F)F)c2)n1 (stereo not shown)
A. t

Q. In plain terms: is recorded Gi1 hCB1 at least 2 for COC(=O)C(NC(=O)c1cc(C)n(-c2cccc(F)c2)n1)c1cccs1 (stereo not shown) ?
A. f

Q. Reported Gi1 hCB1 at or above 2? `Brc1cc2c(cc1Cc1noc(-c3cnn(CC4CC4)c3)n1)OCO2`
A. f

Q. Check the entry `Cn1nc(-c2nnc(C(C)(C)Oc3ccc(C(F)(F)F)cc3)o2)c2ccccc2c1=O` : does Gi1 hCB1 equal or exceed 2?
A. f

Q. Decide: is the reported value of Gi1 hCB1 for COc1cccc(C(NC(=O)c2cc(C)n(-c3cccc(C(F)(F)F)c3)n2)c2ccco2)c1 (stereo not shown) equal to or greater than 2?
A. f

Q. Determine whether measured Gi1 hCB1 meets or exceeds 2 for Cc1cc(C(=O)N(C)C(c2ccccc2)c2ccco2)nn1-c1cccc(C(F)(F)F)c1 (stereo not shown)
A. f

Q. Given the entry Cc1cc(C(=O)NC(c2ccccc2)c2ccco2)nn1-c1cccc(C#N)c1 (stereo not shown) , answer whether its Gi1 hCB1 meets or surpasses 2.
A. f

Q. Form field: Gi1 hCB1 at least 2? Entry: `Cc1nc(CC2CC2)oc1-c1nc(Cc2cc3c(cc2Br)OCO3)no1`
A. t

Q. Quick check: does Cc1cc(C(=O)NC(c2ccccc2)c2ccco2)nn1-c1cccc(C(F)(F)F)c1 (stereo not shown) have Gi1 hCB1 greater than or equal to 2?
A. t

Q. Threshold query (Gi1 hCB1 >= 2) on COC(=O)C(NC(=O)c1cc(C)n(-c2cccc(C(F)(F)F)c2)n1)c1cccs1 (stereo not shown)
A. t

Q. hey, is Gi1 hCB1 for this one >= 2? Cc1c(C(=O)OCC2CSc3ccccc3O2)cnn1Cc1ccccc1 (stereo not shown)
A. f
